Consider the following compounds and their measured melting point readings.

Below are worked cases with known answers.
For Cc1ccc2c(c1)c(C#N)c(-c1ncc(S(=O)(=O)NC(CF)CF)cn1)n2C(C)C [compound 567] the compound record lists melting point as 160 to 163 °C

For C[C@H](NS(=O)(=O)c1ccc(-c2c(C#N)c3cc(F)ccc3n2C2CCC2)nc1)C1CC1 [compound 142] the compound record lists melting point as 128 to 130 °C

For CC(=O)c1ccc(-n2c(-c3ccc(S(=O)(=O)N[C@@H](C)C(F)(F)F)cn3)c(C#N)c3cc(F)c(C)cc32)s1 [compound 1035] the compound record lists melting point as 235.6 to 238.7 °C

For N#Cc1c(-c2ncc(S(=O)(=O)NC(CF)CF)cn2)n(C2CCCC2)c2cc(CC(F)F)ccc12 [compound 599] the compound record lists melting point as 174 to 210 °C

For CC(C)n1c(-c2ccc(S(=O)(=O)NC(CF)CF)cn2)c(C#N)c2ccc(F)cc21 [compound 61] the compound record lists melting point as 155 to 156 °C

New cases:
For Cc1cc2c(cc1F)c(C#N)c(-c1ccc(S(=O)(=O)N[C@@H](C)C(F)(F)F)cn1)n2-c1cccc(Cl)n1 [compound 962] the compound record lists melting point as 253 to 257 °C

For Cc1cc2c(cc1F)c(C(N)=O)c(-c1ccc(S(=O)(=O)NC(C)(C)C(F)(F)F)cn1)n2C1CCCC1 [compound 701] the compound record lists melting point as 211 to 214 °C

For Cc1cc2c(cc1Cl)c(C#N)c(-c1ncc(S(=O)(=O)N[C@@H](C)C(F)(F)F)cn1)n2C1CCC1 [compound 448] the compound record lists melting point as > 300 °C

For CCc1cc2c(cc1F)c(C#N)c(-c1ccc(S(=O)(=O)NCC3CCC3)cn1)n2-c1ncccn1 [compound 953] the compound record lists melting point as 207 to 214 °C

For C[C@H](NS(=O)(=O)c1cnc(-c2c(C#N)c3ccc(CC(F)F)cc3n2C2CCC2)nc1)C(F)(F)F [compound 385] the compound record lists melting point as 216 to 218 °C

For CCn1c(-c2ccc(N(C(C)C)S(=O)(=O)CC)cn2)c(C#N)c2ccc(OC(C)C)cc21 [compound 282] the compound record lists melting point as 170 to 175 °C

For Cc1cc2c(C#N)c(-c3ccc(S(=O)(=O)N[C@H](C)C(F)(F)F)cn3)n(C3CCC3)c2cc1Cl [compound 510] the compound record lists melting point as 200 to 200.5 °C

For Cc1cc(F)c2c(C#N)c(-c3ccc(S(=O)(=O)NC4(C(F)(F)F)CC4)cn3)n(C3CCC3)c2c1 [compound 629] the compound record lists melting point as 241 to 246 °C

For CC(C)(C)NS(=O)(=O)c1ccc(-c2c(C#N)c3cc(F)ccc3n2C2CCC2)nc1 [compound 9] the compound record lists melting point as 181 to 185 °C

For Cc1cc2c(cc1F)c(C#N)c(-c1ccc(S(=O)(=O)N[C@@H](C)C(F)(F)F)cn1)n2-c1cc(F)cc(F)n1 [compound 1001] the compound record lists melting point as 190.2 to 196.8 °C
